B1: PhoQ; a variant is named by its letters at X, in order, P23837 (parent)
chain: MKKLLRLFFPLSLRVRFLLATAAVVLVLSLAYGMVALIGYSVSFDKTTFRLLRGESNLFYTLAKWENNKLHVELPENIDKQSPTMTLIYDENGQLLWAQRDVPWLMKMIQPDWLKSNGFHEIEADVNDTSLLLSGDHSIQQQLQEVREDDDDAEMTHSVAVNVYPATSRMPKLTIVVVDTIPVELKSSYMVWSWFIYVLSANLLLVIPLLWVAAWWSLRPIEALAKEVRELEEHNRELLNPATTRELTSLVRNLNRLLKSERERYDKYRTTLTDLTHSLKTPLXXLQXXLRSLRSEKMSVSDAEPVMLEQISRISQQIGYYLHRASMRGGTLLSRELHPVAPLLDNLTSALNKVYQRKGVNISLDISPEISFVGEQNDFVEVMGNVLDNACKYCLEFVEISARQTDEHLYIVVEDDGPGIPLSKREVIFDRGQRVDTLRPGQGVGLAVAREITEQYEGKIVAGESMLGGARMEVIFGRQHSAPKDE

# Variants of: B1
# Test Method Notes: enrichment ratio after two sorts for PhoP signalling (ratio (wild type AVST 3.29)); higher = more functional
# Condition Set: with PhoP (E. coli)
In all, about 140,000 sequences were measured (“enrichment ratio after two sorts for PhoP signalling”: median about 0, highest 2% from about 11 on). This is one part of a sample in which the highest values are shown more often than they occur.
Measurement Label: enrichment ratio
The reply should be a number, written without any unit.

Some entries whose results are on file:
{"columns": ["Mut", "Experimental Value"],
 "data": [
  ["TQAM", 25.5],
  ["SQAT", 12.5],
  ["SLLV", 6.62]
]}

I am curious: what enrichment ratio value has been reported for TCSS ? 15

Which enrichment ratio value is on record for SNCK ? 0.609

Consider the variant shown here: SKLC What is its recorded enrichment ratio? 12.6

Form field: reported enrichment ratio of TQCK 1.24

Fill in the blank: the reported enrichment ratio of VAGY is ____. 1.53
